Tested on: MS2 coat protein
test_description: apparent KD of MS2 coat protein; higher = weaker reporter binding
recorded_conditions: Eterna round: R107; input ligand: none
assay_metric: apparent KD of MS2 coat protein (µM)
Answer with a number only, understood to be in µM.

Please review the entries below; each comes with its answer.
AAGGGAGAGUCAGAUACCAGAGUAAGAUGGCAUGGUAAUUACAUGAGGAUCACCCAUGUAUUCCCUUGGCAGCUGACCCUACGUU [Exclusion Theophylline B GF 19]: 0.0141
UGUACAGACAUCGAAUUCCUAUGUGCUGAAGGAGCGUCGUUGACGACAGGUAGGUCGCAGUUAACAUGAGGAUCACCCAUGUACA [Arg A Ex t5]: 0.0858

Now for a further sequence.
The measured apparent KD of MS2 coat protein associated with GGAUAGGACAGAAGGAGCGUGAGAUGCAAAGCUUCAUUCCUCACAUGAGGAUCACCCAUGUCACAGGUAGGUCGCUGUCCUAUCG [#19 Exclusion - Arginine B] reads 0.102

Origin of values: the supplement of paper PMC9170038
